# Tested on: SF-295 CNS
# method.description: NCI tumour cell line growth inhibition, 48 h
Below is a list of entries, each paired with its recorded TGI value.

Consider the reported TGI for these compounds:
Cc1oc2nc(N(C)C)n3cnnc3c2c1C    > 100 µM
Cc1c(Cl)cccc1NC(=O)C(=O)c1c(O)c2ccc(O)cc2oc1=O    > 100 µM
Fc1ccc2c(c1)nc1n2C(c2c(F)cccc2F)SC1 (configuration not stated)    > 100 µM
O=C1C=CC(=O)c2c(O)c(N(CCCl)CCCl)c(Cl)c(O)c21    > 10 µM
COc1ccc(/N=N/C(=NNC(=O)c2ccc(C)cc2)c2ccc(N(C)C)cc2)cc1    > 100 µM

query: Recorded TGI for `CC[C@@H](C(=O)[C@@H](C)[C@@H](O)[C@H](C)[C@@H]1O[C@@H]([C@@H](CC)C(=O)O)CC[C@@H]1C)[C@H]1O[C@]2(C=C[C@@H](O)[C@]3(CC[C@@](C)([C@H]4CC[C@](O)(CC)[C@H](C)O4)O3)O2)[C@H](C)C[C@@H]1C` with SF-295 CNS, please?
result: 7.71 µM

query: Recorded TGI for `COc1ccc(/C=C/C(=O)c2ccc(Nc3nc(Nc4ccc(F)cc4)nc(Nc4ccc(F)cc4)n3)cc2)cc1` with SF-295 CNS, please?
result: 42.7 µM

query: Recorded TGI for `O=C1Nc2ccccc2SC1=C(C(=O)c1ccccc1)C(=O)c1ccccc1` with SF-295 CNS, please?
result: 57.5 µM
